# System: Klebsiella pneumoniae
# EXPERIMENTAL DETAILS: Antimicrobial activity against Klebsiella pneumoniae ATCC 10031 by agar dilution method
# Assay type: functional
# CONDITION SET: Klebsiella pneumoniae, ATCC 10031; read-out: MIC
Give measured MIC for each item. Keep answers brief.
Numbers only, in µg/mL.

{"columns": ["COMPOUND STRING", "OBSERVED PROPERTY", "MEAS VALUE"],
 "data": [
  ["CO[C@@H]1[C@@H](O[C@@H]2O[C@H](C)[C@@H](O[C@H]3C[C@@](C)(O)[C@@H](OC(=O)CC(C)C)[C@H](C)O3)[C@H](N(C)C)[C@H]2O)[C@@H](CC=O)C[C@@H](C)[C@@H](OC(=O)CCC(=O)O)/C=C/C=C/C[C@@H](C)OC(=O)C[C@H]1OC(C)=O", "MIC", 100]
]}

Proceeding to the next compound to report its MIC.
Inquiry: Suppose we examine the compound CO[C@@H]1[C@@H](O[C@@H]2O[C@H](C)[C@@H](O[C@H]3C[C@@](C)(O)[C@@H](O)[C@H](C)O3)[C@H](N(C)C)[C@H]2O)[C@@H](CC=O)C[C@@H](C)[C@@H](OC(C)=O)/C=C/C=C/C[C@@H](C)OC(=O)C[C@H]1OC(C)=O ; what MIC value has been reported?
Reply text: 50
